Compiled record: IC50 values for Glycogen synthase kinase-3 alpha (Homo sapiens) across several sources.
Criterion: IC50 strictly under 1 µM. Met: class 1. Not met: class 0.

These recorded examples may help you get a feel for the data.
>  <compound>
Cc1ccc(-n2nc(C(C)(C)C)cc2NC(=O)Nc2ccc(Oc3ccnc(Nc4cnc5[nH]ncc5c4)n3)c3ccccc23)cc1

>  <discreteLabel>
class 0

$$$$
>  <compound>
CCP(=O)(CC)c1cc(C(C)(C)C)cc(NC(=O)Nc2ccc(Oc3ccnc(Nc4ccccc4)c3)c3ccccc23)c1OC

>  <discreteLabel>
class 0

$$$$
>  <compound>
COc1cc(Nc2cc(Oc3ccc(NC(=O)Nc4cc(C(C)(C)C)cc(NS(C)(=O)=O)c4OC)c4ccccc34)ccn2)ccc1C(=O)N[C@@H](C)CN1CCOCC1

>  <discreteLabel>
class 0

$$$$
>  <compound>
COc1c(NC(=O)Nc2ccc(Oc3ccnc(Nc4ccc5c(c4)CS(=O)(=O)C5)n3)c3ccccc23)cc(C(C)(C)C)cc1P(C)(C)=O

>  <discreteLabel>
class 1

$$$$
>  <compound>
COc1cc(Nc2cc(Oc3ccc(NC(=O)Nc4cc(C(C)(C)C)cc(NS(C)(=O)=O)c4OC)c4ccccc34)ccn2)ccc1C(=O)NCCN1CCCCC1

>  <discreteLabel>
class 0

$$$$

Ask: Confirm or reject: IC50 of COc1c(NC(=O)Nc2ccc(Oc3ccnc(Nc4ccc(OCCCN5CCOCC5)c(C#N)c4)c3)c3ccccc23)cc(C(C)(C)C)cc1NS(C)(=O)=O lies strictly below 1 µM
Result: class 0

Ask: Confirm or reject: IC50 of COCCOCCOCCS(=O)(=O)c1cc(Nc2cc(Oc3ccc(NC(=O)Nc4cc(C(C)(C)C)cc(NS(C)(=O)=O)c4OC)c4ccccc34)ccn2)cc(OC)c1 lies strictly below 1 µM
Result: class 0
